# Tested on: NOMO1
# assay_explanation: cell viability relative to DMSO control; higher = less cytotoxic
# conditions_used: HPLM + 10% dialyzed FBS; 48 h; 0.0632 µM
measure: cell viability (%)
Give bare numbers, in %.

>>> number("COc1cccc2c1C(=O)c1c(O)c3c(c(O)c1C2=O)C[C@@](O)(C(=O)CO)C[C@@H]3O[C@H]1C[C@H](N)[C@H](O)[C@H](C)O1")
96.2
>>> number("Nc1ccc([S+](=O)([O-])Nc2ccnn2-c2ccccc2)cc1")
108
>>> number("CNc1nc(Nc2cnn([C@H]3CCN(C4COC4)C[C@@H]3F)c2Cl)ncc1C(F)(F)F")
120
>>> number("Cc1ccccc1C(=O)Nc1ccc(C(=O)N2CCCC(O)c3cc(Cl)ccc32)c(C)c1 (stereo not given)")
139

From here, focus on the item given below.
# assay system NOMO1: give cell viability of CN1CC(=O)N2[C@H](c3ccc4c(c3)OCO4)c3[nH]c4ccccc4c3C[C@@H]2C1=O
103
